Tested on: OVCAR-8 ovarian
Assay: NCI-60 one-dose screen, 48 h (100 = growth as untreated, 0 = no growth, -100 = all killed)
Details: 10 µM unless noted
Compounds without any hit were thinned out: in the full panel of roughly 83,000, 20% have a hit.
measurement kind: growth (%)
Please give a number only; it is taken to be in %.

{"compound": "C/C1=C\\CCC2(C)OC2CC2CCC(C)(O)C(CC1)C2(C)C (stereo unspecified)", "unit annotation": "%", "recorded result": 89.8}
{"compound": "CCN(CC)P(=O)(N(CC)CC)N(CCCSC/C=C(\\C)CC/C=C(\\C)CCC=C(C)C)CCCN1CCN(C)CC1", "unit annotation": "%", "recorded result": 97.1}
{"compound": "COc1ccc2c(c1)NC(=O)CN2c1nc(NC2CC2)nc2ccccc12", "unit annotation": "%", "recorded result": 18.3}
{"compound": "CCC(c1ccc(OC)cc1)C(CC)c1ccc(OCC[N+](C)(C)C)cc1 (stereo unspecified)", "unit annotation": "%", "recorded result": 51.4}
{"compound": "CC(=O)Nc1ccc(S(=O)(=O)NC(CCC(=O)Nc2ccc(Cl)cc2)C(=O)O)cc1 (stereo unspecified)", "unit annotation": "%", "recorded result": 97.4}

Continue with the compound presented below.
Q. Would you kindly share the measured growth for Nc1nc(-c2ccccc2)cs1 ?
A. 100

###

Test system: A549/ATCC NSCLC
Assay: NCI-60 one-dose screen, 48 h
Details: 10 µM unless noted
Experimental: Growth inhibition of the A549/ATCC human Non-Small Cell Lung tumor cell line is measured as a screen for anti-cancer activity. Cells are grown in 96 well plates and exposed to the test compound for 48 hours. Compounds are tested at a single concentration, which is 10^-5 M for most compounds. The reported endpoint is percent growth (GI% or GIPRCNT), where numbers from 0 - 100% represent growth inhibition, and numbers from -100% - 0 represent cell death. […]
This is part of a sample that, as a whole, favours compounds with a hit. Of some 83,000 tested, about 20% had one in any assay. Active and inactive are the calls of the source. Rule for the calls: active = growth percent below 10; inactive = the rest.
Assign a class; possible classes are active, inactive

{"compound": "COc1cc2nc(N3CCC[C@@H](NC4=CC(=O)c5ccccc5C4=O)C3)nc(N)c2cc1OC", "label value": "active"}
{"compound": "CN(C)c1ncc(-c2ccc(C(F)(F)F)cc2)c(NC2CCCCCC2)n1", "label value": "inactive"}
{"compound": "COc1ccc(C(=O)/C=C/c2ccc(/C=C/c3cc(OC)c(OC)c(OC)c3)cc2)cc1", "label value": "inactive"}
{"compound": "Nc1ccccc1C#C/C=C\\C#Cc1cccc(O)c1", "label value": "inactive"}
{"compound": "COc1cc(C2C=C(C)N=C3SC=CN32)cc(OC)c1OC (stereo unspecified)", "label value": "inactive"}

Okay, next one:
Q. For this compound, state the assay outcome: COc1ccc2c(c1)NC(=O)CN2c1nc(C)nc2ccccc12
A. inactive

###

Test system: HOP-62 NSCLC
Test: NCI-60 one-dose screen, 48 h (100 = growth as untreated, 0 = no growth, -100 = all killed)
Details: 10 µM unless noted
The panel holds about 83,000 compounds, 20% with a hit somewhere; the sample as a whole holds those more often.
Doc: threshold 80% (exclusive). Items with growth beneath it return condition met; others return condition not met.

{"compound": "COc1ccc(C(=O)c2cc(OC)c(OC)c(OC)c2)cc1/C=C/C(=O)c1ccc(O)cc1", "label value": "condition not met"}
{"compound": "COC(=O)CCCCCCN=Cc1c(O)c(O)c(C(C)C)c2cc(C)c(-c3c(C)cc4c(C(C)C)c(O)c(O)c(C=NCCCCCCC(=O)OC)c4c3O)c(O)c12", "label value": "condition met"}
{"compound": "COC(=O)C(CC(=O)c1ccc(-c2ccccc2)cc1)c1ccccc1 (stereo not given)", "label value": "condition met"}
{"compound": "COc1ccc(S(=O)(=O)NCCNc2nccc(-c3c(-c4ccccc4)nc4sccn34)n2)cc1", "label value": "condition met"}
{"compound": "CC(C)(C)OC(=O)N[C@@H](Cc1ccccc1)C(=O)N(Cc1ccccc1)C1(C(=O)NCc2ccccc2)CCN(Cc2ccccc2)CC1", "label value": "condition met"}

Q. Field: below-cutoff. Rule: recorded growth strictly less than 80%. Subject: CC1(C)OC2COC3(C(=O)O)OC(C)(C)OC3C2O1 (stereo not given)
A. condition not met

Q. Then COc1cc(Br)c(OC)cc1Br ?
A. condition not met

Q. // query: O=c1[nH]c(-c2cn(-c3ccc(Cl)cc3)nn2)nc2ccccc12
A. condition met

Q. And the next one, Cc1ccc2c(c1)ncn2-c1ncnc2c1CC(C)c1ccccc1N2C (stereo not given) ?
A. condition met

###

Tested on: SK-MEL-28 melanoma
Experiment: NCI-60 one-dose screen, 48 h
Settings: 10 µM unless noted
This is part of a sample that, as a whole, favours compounds with a hit. Of some 83,000 tested, about 20% had one in any assay. Activity calls are given as the source filed them. Rule for the calls: active = growth percent below 10; inactive = the rest.
Permitted responses: t for active, f for inactive

Reference set (3 entries):
{"compound": "CCCCCCCCCCCCCCCCC(Br)C(=O)O (stereo unspecified)", "label value": "f"}
{"compound": "CCOC(=O)CC(C#N)(CC(=O)OCC)C(=O)OCC", "label value": "f"}
{"compound": "Clc1ccc2c(c1)NC1(CCSc3ccccc31)n1nccc1-2 (stereo unspecified)", "label value": "f"}

Q. For CC(Br)C(O)c1cc2c(cc1Br)OCO2 (stereo unspecified) , what call appears in the results of this test?
A. f

Q. What about Cc1ccc(Cn2c(-c3nonc3N)nc3ccccc32)cc1 ?
A. f

###

Test system: CCRF-CEM leukemia
Test: NCI-60 one-dose screen, 48 h (100 = growth as untreated, 0 = no growth, -100 = all killed)
Conditions: 10 µM unless noted
Description: Growth inhibition of the CCRF-CEM human tumor cell line is measured as a screen for anti-cancer activity. Cells are grown in 96 well plates and exposed to the test compound for 48 hours. Compounds are tested at a single concentration, which is 10^-5 M for most compounds. The reported endpoint is percent growth (GI% or GIPRCNT), where numbers from 0 - 100% represent growth inhibition, and numbers from -100% - 0 represent cell death. For example, a value of 40 represents 60% growth inhibition. […]
This is part of a sample that, as a whole, favours compounds with a hit. Of some 83,000 tested, about 20% had one in any assay.
Label t when growth is at or above 90%; anything below gets f.

The following molecules have reported results that may help.
{"molecule": "O=C(C[N+](=O)[O-])c1ccc(Cl)cc1", "measured on": "CCRF-CEM leukemia", "label value": "t"}
{"molecule": "Cc1cc(C(=O)CSc2nc3ccccc3c(=O)[nH]2)c(C)n1C", "measured on": "CCRF-CEM leukemia", "label value": "f"}
{"molecule": "COc1cc2nc(Cl)nc(NCCO)c2cc1OC", "measured on": "CCRF-CEM leukemia", "label value": "t"}
{"molecule": "Nc1c(C(=O)Nc2cccc(Cl)c2Cl)sc2nc3c(cc12)C(=O)CCC3", "measured on": "CCRF-CEM leukemia", "label value": "f"}
{"molecule": "COC(=O)c1ccc(C)cc1", "measured on": "CCRF-CEM leukemia", "label value": "t"}

Q. Decide: is the reported value of growth for C=CCn1c(C)nc2ccc(Nc3nc(Nc4ccc(F)cc4)nc4ccccc34)cc21 equal to or greater than 90%?
A. f

Q. Please answer likewise for CCCCCCC[C@@H](O)CC(=O)N[C@H](CCCCN)C(=O)N[C@H](Cc1c[nH]c2ccccc12)C(=O)NC(CCCCN)C(=O)N[C@H](CC(C)C)C(=O)N[C@H](Cc1ccccc1)C(=O)N[C@H](CCCCN)C(=O)N[C@H](CCCCN)C(=O)N[C@H](CC(C)C)C(=O)N1CCCC1C(=O)N[C@H](CCCCN)C(=O)N[C@H](Cc1ccccc1)C(=O)N[C@H](CC(C)C)C(=O)N[C@H](Cc1c[nH]cn1)C(=O)N[C@H](CC(C)C)C(=O)N[C@H](C)C(=O)N[C@H](CCCCN)C(=O)N[C@H](CCCCN)C(=O)N[C@H](Cc1ccccc1)C(=O)O (some centres not stated)
A. f

###

System: NCI-H322M lung
Assay: NCI-60 one-dose screen, 48 h (100 = growth as untreated, 0 = no growth, -100 = all killed)
Conditions: 10 µM unless noted
Compounds without any hit were thinned out: in the full panel of roughly 83,000, 20% have a hit.
This listing pairs compounds with measured growth.
# unit: % | format: bare number

{"compound": "COc1ccc(C2=NN(c3ccc(S(N)(=O)=O)cc3)C(c3cn(-c4ccccc4)nc3-c3ccc(Cl)cc3)C2)cc1 (configuration not stated)", "growth, %": 94.4}

Q. Quick one: growth for O=c1[nH]c2ccccc2cc1-c1nnc(Cc2ccccc2)o1 ?
A. 92.3

Q. Entry COC(=O)CCCCN=Cc1c(O)c(O)c(C(C)C)c2cc(C)c(-c3c(C)cc4c(C(C)C)c(O)c(O)c(C=NCCCCC(=O)OC)c4c3O)c(O)c12 please
A. 25.4

Q. Note, next up: NCCSC(c1ccccc1)(c1ccccc1)c1ccccc1
A. 29.5

Q. What do we get for O=S(=O)(NCCCNc1nccc(-c2c(-c3ccc(F)c(O)c3)nc3sccn23)n1)c1ccc(Cl)cc1 ?
A. 98.6

Q. Entry to check: CCCCCC/C=C\CCCCCCCCOc1ccc(CCOP(=O)(O)OCC[N+](C)(C)C)cc1
A. 105
